target: HLA-B*08:01; assay: IEDB peptide-MHC binding, purified MHC/direct/fluorescence; filed as Kd, often an IC50 or EC50 that approximates it; bounds were set here for any values at or beyond the usual limits of such assays; conditions: source organism: Corynebacterium diphtheriae
measurement-name: pKd
Just the number, please; pKd means minus log10 of the concentration in mol/L.

Given item VERRLVKVL , the value recorded as its pKd is 5.15

###

molecular target: HLA-B*35:01; experiment: IEDB peptide-MHC binding, purified MHC/competitive/radioactivity; filed as Kd, often an IC50 or EC50 that approximates it; bounds were set here for any values at or beyond the usual limits of such assays; conditions: source organism: Mammarenavirus lassaense
measurement-name: Kd (nM)
Respond numerically; units are nM and should not be typed.

FPAGLTYSQL; 115

Given item FPAIFSAEV , the value recorded as its Kd is 16.8

###

molecular target: HLA-B*40:01; experiment: IEDB peptide-MHC binding, purified MHC/direct/fluorescence; filed as Kd, often an IC50 or EC50 that approximates it; bounds were set here for any values at or beyond the usual limits of such assays; details: source organism: Pseudomonas putida
measurement-name: Kd

Given item NWDWGVFFK , the value recorded as its Kd is ≥ 20 µM

###

biological target: HLA-B*58:01; assay: IEDB peptide-MHC binding, purified MHC/direct/fluorescence; filed as Kd, often an IC50 or EC50 that approximates it; bounds were set here for any values at or beyond the usual limits of such assays; conditions: source organism: Influenza A virus (A/England/627/01(H1N2))
pKd: −log10 of the molar value.
measurement-name: pKd

KMARLGKGY tested on HLA-B*58:01 gave pKd: ≤ 4.70

###

biological target: HLA-B*53:01; assay: IEDB peptide-MHC binding, purified MHC/competitive/radioactivity; filed as Kd, often an IC50 or EC50 that approximates it; bounds were set here for any values at or beyond the usual limits of such assays; conditions: source organism: Dengue virus 3 Martinique/1243/1999
measurement-name: Kd (µM)
Respond numerically; units are µM and should not be typed.

Given item LPETMETLL , the value recorded as its Kd is 3.58

###

target: HLA-A*23:01; test: IEDB peptide-MHC binding, purified MHC/competitive/radioactivity; filed as Kd, often an IC50 or EC50 that approximates it; bounds were set here for any values at or beyond the usual limits of such assays; conditions: source organism: Dengue virus 2 Jamaica/1409/1983
measurement-name: pKd
Just the number, please; pKd means minus log10 of the concentration in mol/L.

WYAQIQPHW tested on HLA-A*23:01 gave pKd: 7.21

###

biological target: HLA-A*26:01; experiment: IEDB peptide-MHC binding, purified MHC/direct/fluorescence; filed as Kd, often an IC50 or EC50 that approximates it; bounds were set here for any values at or beyond the usual limits of such assays; conditions: source organism: Rickettsia prowazekii
pKd: −log10 of the molar value.
measurement-name: pKd

YGGKKAVTY tested on HLA-A*26:01 gave pKd: ≤ 4.70

###

molecular target: HLA-A*11:01; assay: IEDB peptide-MHC binding, purified MHC/competitive/radioactivity; filed as Kd, often an IC50 or EC50 that approximates it; bounds were set here for any values at or beyond the usual limits of such assays; conditions: source organism: Dengue virus 2 Jamaica/1409/1983
measurement-name: Kd (nM)
Respond numerically; units are nM and should not be typed.

ITVNPIVTEK; 69.2

// switching to the query sequence
Given item AVILQNAWK , the value recorded as its Kd is 128
